B1: SAM and SH3 domain-containing protein 1, residues 630 to 700; numbered along this chain, O94885 (parent)
chain: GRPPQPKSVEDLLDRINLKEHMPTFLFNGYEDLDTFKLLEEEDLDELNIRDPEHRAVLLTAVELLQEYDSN

# Variants of: B1
# protocol: abundance fitness (aPCA) (normalised: wild type 0, dead -1); higher = more abundant; growth selection in yeast, the domain comes from the species named
# condition-info: Homo sapiens
Use Criterion met when the recorded abundance fitness is no lower than -0.5; use Criterion not met when it is lower.

> print(dat)
                              sequence.text          class
1  GRPMQPKSVEDLLDRINLKEHMPTFLFNGYEDLDTFKLLEEEDLDELNIRDPEHRAVLLTAVELLQEYDSN [P4M]  Criterion met

Query variant follows.
Request: Can GRPPQPKSVEDLLDRINLKEHMPTFLFNGYEDCDTFKLLEEEDLDELNIRDPEHRAVLLTAVELLQEYDSN [L33C] be said to have abundance fitness at or above -0.5?
Result: Criterion not met

// data source = the Human Domainome abundance scans (Beltran et al. 2025)
